molecular target: panel of more than 300 wild-type and mutant kinases (313 kinase panel) (Homo sapiens); experiment: Kinase profiling in a biochemical assay panel (mobility shift assays and ELISA), %-inhibition at 1 μM; selectivity entropy; conditions: kinase FER; compound at 1 μM
Sequence (P16591 whole entry, change not shown): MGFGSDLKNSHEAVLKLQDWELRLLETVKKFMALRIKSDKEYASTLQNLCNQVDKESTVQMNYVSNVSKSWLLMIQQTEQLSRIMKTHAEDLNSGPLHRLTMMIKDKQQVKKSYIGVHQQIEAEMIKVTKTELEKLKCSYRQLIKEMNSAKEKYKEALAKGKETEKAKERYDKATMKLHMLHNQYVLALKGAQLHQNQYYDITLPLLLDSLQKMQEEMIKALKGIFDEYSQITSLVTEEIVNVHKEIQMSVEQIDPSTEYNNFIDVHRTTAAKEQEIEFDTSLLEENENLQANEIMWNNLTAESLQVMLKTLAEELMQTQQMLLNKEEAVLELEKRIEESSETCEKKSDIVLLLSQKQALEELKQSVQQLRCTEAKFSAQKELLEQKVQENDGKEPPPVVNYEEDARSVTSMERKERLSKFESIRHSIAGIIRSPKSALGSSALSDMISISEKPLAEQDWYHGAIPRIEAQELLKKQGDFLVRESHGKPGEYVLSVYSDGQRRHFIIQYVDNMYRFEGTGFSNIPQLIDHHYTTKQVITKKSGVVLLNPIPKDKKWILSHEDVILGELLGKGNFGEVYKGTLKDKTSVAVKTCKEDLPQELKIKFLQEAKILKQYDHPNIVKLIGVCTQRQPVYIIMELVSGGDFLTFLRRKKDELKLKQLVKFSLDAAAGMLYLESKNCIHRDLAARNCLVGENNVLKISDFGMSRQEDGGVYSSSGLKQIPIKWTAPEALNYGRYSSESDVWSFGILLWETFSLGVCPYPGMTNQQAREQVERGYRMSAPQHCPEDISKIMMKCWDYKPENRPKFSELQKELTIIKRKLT
measured parameter: %-inhibition of FER (%)
Give the value, in units of %, as a plain number.

chem smiles	observed result
COc1cc(Nc2c(C#N)cnc3cc(OCCCN4CCN(C)CC4)c(OC)cc23)c(Cl)cc1Cl	89
O=S(=O)(c1cccc2cnccc12)N1CCCNCC1	-3
N#CC[C@H](C1CCCC1)n1cc(-c2ncnc3[nH]ccc23)cn1	33
CCCS(=O)(=O)Nc1ccc(F)c(C(=O)c2c[nH]c3ncc(-c4ccc(Cl)cc4)cc23)c1F	11
CS(=O)(=O)CCNCc1ccc(-c2ccc3ncnc(Nc4ccc(OCc5cccc(F)c5)c(Cl)c4)c3c2)o1	3

Qu. Record request: %-inhibition of FER value, item `COc1cc2c(Nc3ccc(Br)cc3F)ncnc2cc1OCC1CCN(C)CC1`
Ans. 2.48

Qu. And `Cc1cn(-c2cc(NC(=O)c3ccc(C)c(Nc4nccc(-c5cccnc5)n4)c3)cc(C(F)(F)F)c2)cn1` ?
Ans. -19

Qu. Same read-out for `Cc1ccc(Nc2nccc(N(C)c3ccc4c(C)n(C)nc4c3)n2)cc1S(N)(=O)=O` ?
Ans. 81
